Assignment: determine reported Activity for the given molecules.
MEASUREMENT NOTES: Cytotoxicity against human Huh7.5 cells measured after 48 hrs by MTS assay
Type: toxicity, cell-based, Huh-7
STUDY CONDITIONS: huh-7, 48 h

Look at this molecule and give its reported Activity. CCOC(=O)[C@@H]1C[C@@H]2NC(=O)CCCC[C@@H]2N1S(=O)(=O)c1ccc(C)cc1 (racemic)
92%

Look at this molecule and give its reported Activity. O=C1CCCC[C@@H]2[C@H]1[C@@H](c1ccccc1)CN2S(=O)(=O)c1ccccc1 (racemic)
84%

Look at this molecule and give its reported Activity. OC1CCCC[C@H]2[C@H]1[C@@H](c1cccc(F)c1)CN2Cc1ccccc1 (mixture of isomers)
28%

Look at this molecule and give its reported Activity. CC(C)(C)OC(=O)N1CC[C@@H]2NC[C@H](c3ccccc3)[C@H]2C(=O)C1.Cl (racemic)
97%

Look at this molecule and give its reported Activity. O=C1CCCC[C@@H]2[C@H](C[C@H](Cc3ccccc3)N2Cc2ccccc2)N1 (racemic)
61%

Look at this molecule and give its reported Activity. CCOC(=O)[C@H]1C[C@H]2C(=O)CCCC[C@H]2N1S(=O)(=O)c1ccc(C)cc1 (racemic)
77%

Look at this molecule and give its reported Activity. CCOC(=O)[C@@H](C)N1CC[C@H]2C(=O)CCCC[C@@H]21
88%

Look at this molecule and give its reported Activity. CC(C)(C)OC(=O)N1CC[C@H]2[C@H](C(=O)C1)[C@@H](c1ccccc1)CN2Cc1ccccc1 (racemic)
61%

Look at this molecule and give its reported Activity. Cl.Cl.Fc1cccc([C@@H]2CN(Cc3ccccc3)[C@@H]3CCCCCN[C@H]32)c1 (racemic)
11%

Look at this molecule and give its reported Activity. O=C1CCCC[C@@H]2[C@@H]1[C@H](c1cccc(F)c1)CN2Cc1ccccc1 (racemic)
63%

Look at this molecule and give its reported Activity. O=C1CCCC[C@H]2[C@H]1[C@@H](c1ccccc1)CN2Cc1ccccc1 (racemic)
85%

Look at this molecule and give its reported Activity. CCOC(=O)[C@@H]1C[C@@H]2[C@@H](CCC[C@@H]2O)N1S(=O)(=O)c1ccc(C)cc1 (racemic)
93%

Look at this molecule and give its reported Activity. O=C1CCCC[C@H]2[C@H](N1)[C@@H](c1ccccc1)CN2Cc1ccccc1 (racemic)
98%

Look at this molecule and give its reported Activity. C[C@]12C[C@@H](Cc3ccccc3)N(Cc3ccccc3)[C@H]1CCCC(=O)N2 (racemic)
60%

Data origin: ChEMBL document CHEMBL3865803
